Task for the reader: assign each of the following molecules its reported inhibition.
experiment: IEC-6 cell viability reduction – luminescence, cytotoxicity control for KLF5 inhibitor project, primary screen (AID 1825); details: IEC-6 cytotoxicity, at 5 µM, hits give high values;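 also: 0% = plate median of test compound wells and 100% = cytotoxic reference compound wells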
The campaign covered roughly 290,000 compounds. About 2,300 (0.79%) were called active. Only a selection was taken, and actives are over-represented in it overall.
Numbers only, in %.

Example cases with answers are listed next.
Cc1ccc(NS(=O)(=O)c2ccc(F)cc2)nc1    1.3
CCOCCCNc1nc(-c2ccccc2)nc2ccccc12    -4
Cc1ccc(Oc2nc(-c3ccccn3)nc3ccccc23)cc1    8.9
CCN1/C(=C\c2ccc3ccccc3[n+]2CC)Sc2cc(C)ccc21    54.6
NC(=O)CSc1nnc(NC(=O)c2ccc(Br)o2)s1    -5.8

Would you kindly look at the next entry?
The reported value for CN1C2CCC1CC(NC(=O)c1ccc([N+](=O)[O-])cc1)C2 (stereo unspecified) in terms of inhibition is 5

---

assay: IEC-6 cell viability reduction – luminescence, cytotoxicity control for KLF5 inhibitor project, primary screen (AID 1825); details: IEC-6 cytotoxicity, at 5 µM, hits give high values;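 also: 0% = plate median of test compound wells and 100% = cytotoxic reference compound wells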
Among all 290,000 compounds or so, about 2,300 (0.79%) were called active. For the sample, actives were picked, then their nearest neighbours and some compounds at random.
OBSERVABLE: inhibition

Cn1c(Nc2cccc(Cl)c2)nc2ccccc21    4.2% (inactive)

For every item in the list below, what is its measured inhibition?
1. CC(C)(C)n1nnnc1C(c1ccccc1F)N1CCN(C(=O)c2ccco2)CC1 (stereo unspecified)
2. CCOc1cc(C)c(S(=O)(=O)NCc2ccccn2)cc1C
3. CSc1ccccc1OCc1cc(C(=O)N2C[C@H]3CC[C@H]2C3)no1
4. O=C(COC(=O)c1cc(S(=O)(=O)N2CCCCC2)ccc1Cl)NCc1ccco1
5. CCOc1c(Nc2cccc(Cl)c2)c(=O)c1=O

Marked response:
-4.7% (inactive)
4.3% (inactive)
1.9% (inactive)
6.2% (inactive)
23.4% (active)

---

test: IEC-6 cell viability reduction – luminescence, cytotoxicity control for KLF5 inhibitor project, primary screen (AID 1825); conditions: IEC-6 cytotoxicity, at 5 µM, hits give high values;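 also: 0% = plate median of test compound wells and 100% = cytotoxic reference compound wells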
In all, about 290,000 compounds went through this assay and about 2,300 (0.79%) were called active. For the sample, actives were picked, then their nearest neighbours and some compounds at random.
Task for the reader: assign each of the following compounds its reported inhibition.
Answers are plain numbers, in %.

Example cases with answers are listed next.
CCCC(=O)Nc1nc2ccc(NC(=O)c3cccnc3)cc2s1    30.2
CCOc1ccc(NC(=O)CCC(=O)NNC(=O)NC2CCCCC2)cc1    -7.2
CCOc1ccccc1NC(=S)NC(=O)CCc1ccccc1    -2.9
CSc1nc2ccc(NC(=O)c3c(F)cccc3F)cc2s1    8.5
O=C(Cc1ccccc1)Nc1ccc(NC(=O)c2cccnc2)cc1    0.2
CCCC(=O)Nc1nc2ccc(NC(=O)c3c(F)c(F)c(OC)c(F)c3F)cc2s1    76.8
CCOC(=O)c1ccc(NC(=O)c2cccnc2)cc1    -6.9
Cc1ccc(/C=N/NC(=O)COc2ccccc2-c2ccccc2)cc1    85.6

For every item in the list below, what is its measured inhibition?
1. COc1ccc(-c2cc(C(F)(F)F)nc(S(C)(=O)=O)n2)cc1OC
2. CSc1ccc(/C=N\NC(=O)COc2ccc(Cl)cc2Br)cc1
3. C=CCc1ccccc1OCC(=O)N/N=C/c1ccccc1OCC

Marked response:
1. 26.4
2. 7.1
3. 1.4

Reference source for all entries: PubChem BioAssay AID1825
